settings: 293.15 K; 101.33 kPa; Liquid; Vibrating tube method
outcome.measure: mass density (kg/m3)
Response body: numeric value in kg/m3, unit text excluded.

>>> reported("C1CCC2=[NH+]CCCN2CC1.O=S(=O)([O-])C(F)(F)F")
1361
>>> reported("C1CCC2=[NH+]CCCN2CC1.CC(=O)[O-] [2,3,4,6,7,8,9,10-octahydropyrimido[1,2-a]azepinium acetate]")
1076
>>> reported("C1CCC2=NCCC[NH+]2CC1.O=C([O-])C(F)(F)F [1,8-diazabicyclo[5.4.0]undec-7-enium trifluoroacetate]")
1264.6

Let's switch to this compound now.
Provide one value: measured mass density of C1CCC2=NCCC[NH+]2CC1.CS(=O)(=O)[O-] [1,8-diazabicyclo[5.4.0]undec-7-enium methanesulfonate] 1226.6

---

settings: 343.15 K; 101.33 kPa; Liquid; Vibrating tube method
Numbers after ± are expanded uncertainties.
Quick reference: mass density of the listed items.
Phrase the answer as number then unit, nothing more needed.

Some solved entries appear below for comparison.
>>> reported("C1CCC2=[NH+]CCCN2CC1.O=S(=O)([O-])C(F)(F)F")
"1321.2 ± 4.2 kg/m3"
>>> reported("C1CCC2=NCCC[NH+]2CC1.O=C([O-])C(F)(F)F [1,8-diazabicyclo[5.4.0]undec-7-enium trifluoroacetate]")
"1226.6 ± 4.2 kg/m3"
>>> reported("C1CCC2=NCCC[NH+]2CC1.CS(=O)(=O)[O-] [1,8-diazabicyclo[5.4.0]undec-7-enium methanesulfonate]")
"1193 ± 4 kg/m3"

Let's switch to this molecule now.
Provide one value: measured mass density of C1CCC2=[NH+]CCCN2CC1.CC(=O)[O-] [2,3,4,6,7,8,9,10-octahydropyrimido[1,2-a]azepinium acetate] 1041.8 ± 4.1 kg/m3

---

conditions: 343.15 K; 101.33 kPa; Liquid; Concentric cylinders viscometry
Quick reference: viscosity of the listed items.
Response body: numeric value in mPa·s, unit text excluded.

Some solved entries appear below for comparison.
>>> reported("C1CCC2=[NH+]CCCN2CC1.CC(=O)[O-] [2,3,4,6,7,8,9,10-octahydropyrimido[1,2-a]azepinium acetate]")
14.39
>>> reported("C1CCC2=NCCC[NH+]2CC1.CS(=O)(=O)[O-] [1,8-diazabicyclo[5.4.0]undec-7-enium methanesulfonate]")
78.46
>>> reported("C1CCC2=[NH+]CCCN2CC1.O=S(=O)([O-])C(F)(F)F")
64.4

Provide one value: measured viscosity of C1CCC2=NCCC[NH+]2CC1.O=C([O-])C(F)(F)F [1,8-diazabicyclo[5.4.0]undec-7-enium trifluoroacetate] 48.46

---

details: 313.15 K; 101.33 kPa; Liquid; Vibrating tube method
outcome.measure: mass density (kg/m3)
Response body: numeric value in kg/m3, unit text excluded.

Some solved entries appear below for comparison.
>>> reported("C1CCC2=[NH+]CCCN2CC1.O=S(=O)([O-])C(F)(F)F")
1344.5
>>> reported("C1CCC2=NCCC[NH+]2CC1.O=C([O-])C(F)(F)F [1,8-diazabicyclo[5.4.0]undec-7-enium trifluoroacetate]")
1248.9
>>> reported("C1CCC2=[NH+]CCCN2CC1.CC(=O)[O-] [2,3,4,6,7,8,9,10-octahydropyrimido[1,2-a]azepinium acetate]")
1062.3

Provide one value: measured mass density of C1CCC2=NCCC[NH+]2CC1.CS(=O)(=O)[O-] [1,8-diazabicyclo[5.4.0]undec-7-enium methanesulfonate] 1212.9

---

settings: 353.15 K; 101.33 kPa; Liquid; Vibrating tube method
Quick reference: mass density of the listed items.
Response body: numeric value in kg/m3, unit text excluded.

>>> reported("C1CCC2=[NH+]CCCN2CC1.O=S(=O)([O-])C(F)(F)F")
1313.5
>>> reported("C1CCC2=NCCC[NH+]2CC1.O=C([O-])C(F)(F)F [1,8-diazabicyclo[5.4.0]undec-7-enium trifluoroacetate]")
1219.2
>>> reported("C1CCC2=[NH+]CCCN2CC1.CC(=O)[O-] [2,3,4,6,7,8,9,10-octahydropyrimido[1,2-a]azepinium acetate]")
1034.9

Let's switch to this compound now.
Provide one value: measured mass density of C1CCC2=NCCC[NH+]2CC1.CS(=O)(=O)[O-] [1,8-diazabicyclo[5.4.0]undec-7-enium methanesulfonate] 1186.5

---

conditions: 303.15 K; 101.33 kPa; Liquid; Concentric cylinders viscometry
outcome.measure: viscosity (mPa·s)
Response body: numeric value in mPa·s, unit text excluded.

Some solved entries appear below for comparison.
>>> reported("C1CCC2=[NH+]CCCN2CC1.CC(=O)[O-] [2,3,4,6,7,8,9,10-octahydropyrimido[1,2-a]azepinium acetate]")
84.73
>>> reported("C1CCC2=NCCC[NH+]2CC1.CS(=O)(=O)[O-] [1,8-diazabicyclo[5.4.0]undec-7-enium methanesulfonate]")
1177
>>> reported("C1CCC2=NCCC[NH+]2CC1.O=C([O-])C(F)(F)F [1,8-diazabicyclo[5.4.0]undec-7-enium trifluoroacetate]")
493.76

Let's switch to this compound now.
Provide one value: measured viscosity of `C1CCC2=[NH+]CCCN2CC1.O=S(=O)([O-])C(F)(F)F` 524.23

---

conditions: 353.15 K; 101.33 kPa; Liquid; Concentric cylinders viscometry
outcome.measure: viscosity (mPa·s)
Response body: numeric value in mPa·s, unit text excluded.

>>> reported("C1CCC2=NCCC[NH+]2CC1.O=C([O-])C(F)(F)F [1,8-diazabicyclo[5.4.0]undec-7-enium trifluoroacetate]")
32.94
>>> reported("C1CCC2=[NH+]CCCN2CC1.CC(=O)[O-] [2,3,4,6,7,8,9,10-octahydropyrimido[1,2-a]azepinium acetate]")
10.59
>>> reported("C1CCC2=[NH+]CCCN2CC1.O=S(=O)([O-])C(F)(F)F")
44.29

Let's switch to this compound now.
Provide one value: measured viscosity of C1CCC2=NCCC[NH+]2CC1.CS(=O)(=O)[O-] [1,8-diazabicyclo[5.4.0]undec-7-enium methanesulfonate] 50.26

---

conditions: 353.15 K, Pendant drop shape
Quick reference: surface tension liquid-gas of the listed items.
Response body: numeric value in mN/m, unit text excluded.

Some solved entries appear below for comparison.
>>> reported("C1CCC2=NCCC[NH+]2CC1.O=C([O-])C(F)(F)F [1,8-diazabicyclo[5.4.0]undec-7-enium trifluoroacetate]")
29.74
>>> reported("C1CCC2=NCCC[NH+]2CC1.CS(=O)(=O)[O-] [1,8-diazabicyclo[5.4.0]undec-7-enium methanesulfonate]")
37.54
>>> reported("C1CCC2=[NH+]CCCN2CC1.CC(=O)[O-] [2,3,4,6,7,8,9,10-octahydropyrimido[1,2-a]azepinium acetate]")
30.63

Let's switch to this compound now.
Provide one value: measured surface tension liquid-gas of `C1CCC2=[NH+]CCCN2CC1.O=S(=O)([O-])C(F)(F)F` 27.15

---

conditions: 293.15 K; 101.33 kPa; Liquid; Concentric cylinders viscometry
outcome.measure: viscosity (mPa·s)
Response body: numeric value in mPa·s, unit text excluded.

Some solved entries appear below for comparison.
>>> reported("C1CCC2=NCCC[NH+]2CC1.CS(=O)(=O)[O-] [1,8-diazabicyclo[5.4.0]undec-7-enium methanesulfonate]")
3310.1
>>> reported("C1CCC2=[NH+]CCCN2CC1.CC(=O)[O-] [2,3,4,6,7,8,9,10-octahydropyrimido[1,2-a]azepinium acetate]")
164.74
>>> reported("C1CCC2=[NH+]CCCN2CC1.O=S(=O)([O-])C(F)(F)F")
1113.1

Let's switch to this compound now.
Provide one value: measured viscosity of C1CCC2=NCCC[NH+]2CC1.O=C([O-])C(F)(F)F [1,8-diazabicyclo[5.4.0]undec-7-enium trifluoroacetate] 1193.2

---

conditions: 303.15 K; 101.33 kPa; Liquid; Vibrating tube method
Quick reference: mass density of the listed items.
Response body: numeric value in kg/m3, unit text excluded.

Some solved entries appear below for comparison.
>>> reported("C1CCC2=NCCC[NH+]2CC1.O=C([O-])C(F)(F)F [1,8-diazabicyclo[5.4.0]undec-7-enium trifluoroacetate]")
1256.6
>>> reported("C1CCC2=[NH+]CCCN2CC1.CC(=O)[O-] [2,3,4,6,7,8,9,10-octahydropyrimido[1,2-a]azepinium acetate]")
1069.1
>>> reported("C1CCC2=NCCC[NH+]2CC1.CS(=O)(=O)[O-] [1,8-diazabicyclo[5.4.0]undec-7-enium methanesulfonate]")
1219.8

Let's switch to this compound now.
Provide one value: measured mass density of `C1CCC2=[NH+]CCCN2CC1.O=S(=O)([O-])C(F)(F)F` 1352.7

---

settings: 323.15 K; 101.33 kPa; Liquid; Concentric cylinders viscometry
Quick reference: viscosity of the listed items.
Response body: numeric value in mPa·s, unit text excluded.

Some solved entries appear below for comparison.
>>> reported("C1CCC2=[NH+]CCCN2CC1.O=S(=O)([O-])C(F)(F)F")
158.89
>>> reported("C1CCC2=NCCC[NH+]2CC1.O=C([O-])C(F)(F)F [1,8-diazabicyclo[5.4.0]undec-7-enium trifluoroacetate]")
127.92
>>> reported("C1CCC2=NCCC[NH+]2CC1.CS(=O)(=O)[O-] [1,8-diazabicyclo[5.4.0]undec-7-enium methanesulfonate]")
241.49

Let's switch to this compound now.
Provide one value: measured viscosity of C1CCC2=[NH+]CCCN2CC1.CC(=O)[O-] [2,3,4,6,7,8,9,10-octahydropyrimido[1,2-a]azepinium acetate] 30.38
